The following compounds are listed with their measured inhibition at 10 µM values.
tested on: BT-549; assay: NCI 60 cell line single dose screen (SRB); type: cell-based; details: Homo sapiens; BT-549 (breast cancer), single dose 10^−5 M, 48 h; read-out: Growth inhibition percentage
Kindly provide the numeric value in % only, without the unit symbol.

These recorded examples may help you get a feel for the data.
{"compound": "Cc1nn(-c2ccc(F)cc2)c2ncnc(Cl)c12", "inhibition at 10 µM (%)": -11.5}
{"compound": "Cc1nn(-c2ccc(F)cc2)c2ncnc(N)c12", "inhibition at 10 µM (%)": 9.79}

What value of inhibition at 10 µM has been reported for the following compound? Cc1nn(-c2ccc(F)cc2)c2ncnc(Nc3ccc(F)c(Cl)c3)c12
-4.84

Find the recorded inhibition at 10 µM belonging to COc1cc(C=NNc2ncnc3c2c(C)nn3-c2ccc(F)cc2)cc(OC)c1OC [Compound 10c] and report it.
-1.06

If you can, please state the reported inhibition at 10 µM value of COc1cc(C=NNc2ncnc3c2c(C)nn3-c2ccc(F)cc2)ccc1O [Compound 10b] .
9.63

Recorded inhibition at 10 µM for Cc1nn(-c2ccc(F)cc2)c2ncnc(NN)c12 , please?
-10.8

----------
test system: UO-31; experiment: NCI 60 cell line single dose screen (SRB); type: cell-based; settings: Homo sapiens; UO-31 (renal cancer), single dose 10^−5 M, 48 h; read-out: Growth inhibition percentage
measuredParameter: inhibition at 10 µM (%)
Please give a number only; it is taken to be in %.

These solved cases illustrate the format of a correct answer.
{"molecule": "Cc1nn(-c2ccc(F)cc2)c2ncnc(N3CCN(c4ccc(Cl)cc4)CC3)c12 [Compound 8c]", "targetEntity": "UO-31", "measuredParameter": "inhibition at 10 µM", "measurementUnit": "%", "numericValue": 34.9}
{"molecule": "Cc1nn(-c2ccc(F)cc2)c2nc[nH]c(=O)c12 [Compound 3]", "targetEntity": "UO-31", "measuredParameter": "inhibition at 10 µM", "measurementUnit": "%", "numericValue": 11.7}
{"molecule": "Cc1nn(-c2ccc(F)cc2)c2ncnc(NN)c12 [Compound 9]", "targetEntity": "UO-31", "measuredParameter": "inhibition at 10 µM", "measurementUnit": "%", "numericValue": 28.7}
{"molecule": "COc1cc(C=NNc2ncnc3c2c(C)nn3-c2ccc(F)cc2)ccc1O [Compound 10b]", "targetEntity": "UO-31", "measuredParameter": "inhibition at 10 µM", "measurementUnit": "%", "numericValue": 35.6}

Consider the additional molecule presented here.
Fill in the blank: the reported inhibition at 10 µM of Cc1nn(-c2ccc(F)cc2)c2ncnc(Cl)c12 [Compound 6] is ____.
11.8

----------
test system: MDA-MB-435; test: NCI 60 cell line single dose screen (SRB); format: cell-based; details: Homo sapiens; MDA-MB-435 (melanoma), single dose 10^−5 M, 48 h; read-out: Growth inhibition percentage
Examples of compounds with documented inhibition at 10 µM follow.

For orientation, consider the following solved cases.
{"compound": "Cc1nn(-c2ccc(F)cc2)c2ncnc(N3CCN(c4ccc(Cl)cc4)CC3)c12 [Compound 8c]", "targetEntity": "MDA-MB-435", "measuredParameter": "inhibition at 10 µM", "result": "-14.5%"}
{"compound": "Cc1nn(-c2ccc(F)cc2)c2nc[nH]c(=O)c12 [Compound 3]", "targetEntity": "MDA-MB-435", "measuredParameter": "inhibition at 10 µM", "result": "-7.05%"}

// below: inhibition at 10 µM requested for another compound
Please tell me: inhibition at 10 µM of COc1cc(C=NNc2ncnc3c2c(C)nn3-c2ccc(F)cc2)cc(OC)c1OC [Compound 10c] , system MDA-MB-435?
-2.02%

----------
tested on: IGROV1; assay: NCI 60 cell line single dose screen (SRB); assay type: cell-based; conditions: Homo sapiens, IGROV-1; IGROV1 (ovarian cancer), single dose 10^−5 M, 48 h; read-out: Growth inhibition percentage
Measured inhibition at 10 µM, listed per entry.
Give the number first and the unit second.

These solved cases illustrate the format of a correct answer.
{"molecule": "Cc1nn(-c2ccc(F)cc2)c2ncnc(N3CCN(c4ccc(Cl)cc4)CC3)c12", "result": "25.6%"}
{"molecule": "Cc1nn(-c2ccc(F)cc2)c2ncnc(NN)c12", "result": "23.5%"}
{"molecule": "Cc1nn(-c2ccc(F)cc2)c2ncnc(N3CCOCC3)c12", "result": "-3.29%"}
{"molecule": "Cc1nn(-c2ccc(F)cc2)c2ncnc(Cl)c12", "result": "24.4%"}

Recorded inhibition at 10 µM for COc1ccc(N2CCN(c3ncnc4c3c(C)nn4-c3ccc(F)cc3)CC2)cc1 , please?
9.45%

Name the reported inhibition at 10 µM value associated with the molecule Cc1nn(-c2ccc(F)cc2)c2nc(N)nc(N)c12
6.71%

What inhibition at 10 µM value was documented for this molecule, COc1cc(C=NNc2ncnc3c2c(C)nn3-c2ccc(F)cc2)cc(OC)c1OC [Compound 10c] ?
26.6%

Data request, read-out inhibition at 10 µM, for Cc1nn(-c2ccc(F)cc2)c2ncnc(Nc3ccc(F)c(Cl)c3)c12
27.6%

// inhibition at 10 µM lookup, key: COc1cc(C=NNc2ncnc3c2c(C)nn3-c2ccc(F)cc2)ccc1O [Compound 10b]
20.6%

----------
tested on: HOP-92; assay: NCI 60 cell line single dose screen (SRB); type: cell-based; conditions: Homo sapiens; HOP-92 (non-small cell lung cancer), single dose 10^−5 M, 48 h; read-out: Growth inhibition percentage
Parameter: inhibition at 10 µM. Scope: all listed entries.
Could you give me the number in %? Just the number is fine.

Worked cases, inhibition at 10 µM given:
{"compound": "Cc1nn(-c2ccc(F)cc2)c2ncnc(Nc3ccc(F)c(Cl)c3)c12 [Compound 7d]", "targetEntity": "HOP-92", "inhibition at 10 µM / %": 22.8}
{"compound": "COc1cc(C=NNc2ncnc3c2c(C)nn3-c2ccc(F)cc2)ccc1O [Compound 10b]", "targetEntity": "HOP-92", "inhibition at 10 µM / %": 39.5}

GET /values?readout=inhibition at 10 µM&item= Cc1nn(-c2ccc(F)cc2)c2nc(N)nc(N)c12 [Compound 5]
1.64

Which inhibition at 10 µM is listed for Cc1nn(-c2ccc(F)cc2)c2ncnc(Cl)c12 [Compound 6] ?
7.91

Which value of inhibition at 10 µM has been reported for Cc1nn(-c2ccc(F)cc2)c2nc[nH]c(=O)c12 [Compound 3] in the records?
10.3

----------
Listed here are compounds together with their documented inhibition at 10 µM.
test system: SK-MEL-28; assay: NCI 60 cell line single dose screen (SRB); format: cell-based; details: Homo sapiens; SK-MEL-28 (melanoma), single dose 10^−5 M, 48 h; read-out: Growth inhibition percentage
Give your result in % as a bare value.

{"compound": "Cc1nn(-c2ccc(F)cc2)c2nc[nH]c(=O)c12", "measurementUnit": "%", "inhibition at 10 µM": -14.1}
{"compound": "COc1ccc(N2CCN(c3ncnc4c3c(C)nn4-c3ccc(F)cc3)CC2)cc1", "measurementUnit": "%", "inhibition at 10 µM": -8.74}
{"compound": "Cc1nn(-c2ccc(F)cc2)c2ncnc(N3CCN(c4ccc(Cl)cc4)CC3)c12", "measurementUnit": "%", "inhibition at 10 µM": -3.74}
{"compound": "COc1cc(C=NNc2ncnc3c2c(C)nn3-c2ccc(F)cc2)cc(OC)c1OC [Compound 10c]", "measurementUnit": "%", "inhibition at 10 µM": 1.3}
{"compound": "COc1cc(C=NNc2ncnc3c2c(C)nn3-c2ccc(F)cc2)ccc1O [Compound 10b]", "measurementUnit": "%", "inhibition at 10 µM": -7.04}
{"compound": "Cc1nn(-c2ccc(F)cc2)c2ncnc(N3CCOCC3)c12", "measurementUnit": "%", "inhibition at 10 µM": -12.6}

Requested field: inhibition at 10 µM. Item: Cc1nn(-c2ccc(F)cc2)c2ncnc(Cl)c12
-4.92

----------
tested on: BT-549; assay: NCI 60 cell line single dose screen (SRB); type: cell-based; details: Homo sapiens; BT-549 (breast cancer), single dose 10^−5 M, 48 h; read-out: Growth inhibition percentage
measuredParameter: inhibition at 10 µM (%)
Write it as a number; the unit % goes unstated.

// below: answered compounds
{"smilesStr": "Cc1ccc(Nc2ncnc3c2c(C)nn3-c2ccc(F)cc2)cc1", "measuredParameter": "inhibition at 10 µM", "numericValue": -8.83}
{"smilesStr": "Cc1nn(-c2ccc(F)cc2)c2nc(N)nc(N)c12", "measuredParameter": "inhibition at 10 µM", "numericValue": -17.4}
{"smilesStr": "Cc1nn(-c2ccc(F)cc2)c2nc[nH]c(=O)c12", "measuredParameter": "inhibition at 10 µM", "numericValue": -3.59}
{"smilesStr": "Cc1nn(-c2ccc(F)cc2)c2ncnc(N3CCN(c4ccc(Cl)cc4)CC3)c12", "measuredParameter": "inhibition at 10 µM", "numericValue": -4.23}
{"smilesStr": "COc1ccc(N2CCN(c3ncnc4c3c(C)nn4-c3ccc(F)cc3)CC2)cc1", "measuredParameter": "inhibition at 10 µM", "numericValue": 2.13}

Now turn to the next compound.
Fill in the blank: the reported inhibition at 10 µM of Cc1nn(-c2ccc(F)cc2)c2ncnc(N3CCOCC3)c12 is ____.
3.96
